For each record, write down the corresponding pIC50.
Target: CyclinA2/CDK2 (Homo sapiens, UniProt P20248)
Construct: purchased CRELUX Protein Services
Assay: Fluorescence Polarization (FP) competitive binding assay, Cyclin A2/Cdk2;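 also: plates equilibrated two hours at room temperature before polarization reading, IC50 fitted from eight-concentration compound titration curves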
Conditions: 8 nM Cyclin A2/Cdk2, 2 nM FAM probe; average of 2-3 independent experiments; read-out: Cyclin A FP IC50
*1 amine or outer side, *2 acyl side, *3 side chain or, on linkers, in order; H or OH if unused. Where a SMILES comes first, the peptide text is derived from it. Bridges are numbered along the chain shown (N, C = ends). [ ]: non-standard residue; d: D form. The star is where a group is joined. X1 = C[C@H]1CN(c2ccc(-c3ccc(Cl)cc3C[C@@H](C(=O)[*:2])N(C)[*:1])cc2)CCN1C; X98 = CN1CC2(C1)OCc1cc(-c3ccc(Cl)cc3C[C@@H](C(=O)[*:2])N(C)[*:1])ccc12; X71 = CN([C@@H](Cc1cc(Cl)ccc1-c1ccc(N2CCOCC2)c(F)c1)C(=O)[*:2])[*:1]; NMeAla(5-Cl-2-cPrO-3-pyridyl) = CN[C@@H](Cc1cc(Cl)cnc1OC1CC1)C(=O)O; X18 = CC(=O)N1CCC(=Cc2ccc(Cl)cc2C[C@@H](C(=O)[*:2])N(C)[*:1])CC1; X184 = CC(=O)N1CCC(c2ccc(F)cc2C[C@@H](C(=O)[*:2])N(C)[*:1])CC1; NMehhhLys(Me) = CN([C@@H](CCCCCCCN(C)[*:3])C(=O)[*:2])[*:1]; NMe(hhhLys) = CN([C@@H](CCCCCCCN[*:3])C(=O)[*:2])[*:1]; X17 = CN([C@@H](Cc1cc(Cl)cnc1N1CCOCC1)C(=O)[*:2])[*:1]; NMe3Pal(2-OMe,5-Cl) = CN[C@@H](Cc1cc(Cl)cnc1OC)C(=O)O; X41 = CN([C@@H](Cc1cc(Cl)cc2c1ccn2C)C(=O)[*:2])[*:1]; Cyclobutanecarbonyl(1-CF3) = O=C(C1(C(F)(F)F)CCC1)*; X88 = CC(C)c1ccc(Cl)cc1C[C@@H](C(=O)[*:2])N(C)[*:1]; cBuCO(3,3-F2-1-CF3) = O=C(C1(C(F)(F)F)CC(F)(F)C1)*; Pro(trans-4-F) = O=C(O)[C@@H]1C[C@@H](F)CN1; Pivaloyl(3,3,3-F3) = CC(C)(C(=O)*)C(F)(F)F; Gly(cPr) = N[C@H](C(=O)O)C1CC1
One number for each entry, as −log10 of the molar value.

Worked set:
compound	property	value
COc1ncc(Cl)cc1C[C@H]1C(=O)N(C)CCCCCCC[C@H](N(C)C(=O)[C@@H](NC(=O)[C@@H]2C[C@@H](F)CN2C(=O)C(C)(C)C(F)(F)F)C2CC2)C(=O)N[C@@H](CC(C)C)C(=O)N1C [Example 268] ({Pivaloyl(3,3,3-F3)}-[Pro(trans-4-F)][Gly(cPr)][NMehhhLys(Me)]L[NMe3Pal(2-OMe,5-Cl)]; lactam 3-C)	pIC50	7.22
CC(C)C[C@@H]1NC(=O)[C@@H](N(C)C(=O)[C@@H](NC(=O)[C@@H]2C[C@@H](F)CN2C(=O)C2(C(F)(F)F)CCC2)C2CC2)CCCCCCCN(C)C(=O)[C@H](Cc2cc(Cl)cnc2OC2CC2)N(C)C1=O [Example 109] ({Cyclobutanecarbonyl(1-CF3)}-[Pro(trans-4-F)][Gly(cPr)][NMehhhLys(Me)]L[NMeAla(5-Cl-2-cPrO-3-pyridyl)]; lactam 3-C)	pIC50	7.40
Cc1nnc(-c2ccc(Cl)cc2C[C@H]2C(=O)NCCCCC=CC[C@H](N(C)C(=O)[C@@H](NC(=O)[C@@H]3C[C@@H](F)CN3C(=O)C3(C(F)(F)F)CC(F)(F)C3)C3CC3)C(=O)N[C@@H](CC(C)C)C(=O)N2C)o1 (single isomer, unassigned) [Example 118-P1]	pIC50	6.96

Report pIC50 for each item below.
1. CC(C)C[C@@H]1NC(=O)[C@@H](N(C)C(=O)[C@@H](NC(=O)[C@@H]2C[C@@H](F)CN2C(=O)C2(C(F)(F)F)CC(F)(F)C2)C2CC2)CC=CCCCCNC(=O)[C@H](Cc2cc(Cl)ccc2C2=CCN(C(=O)C(C)C)CC2)N(C)C1=O
2. CC(C)C[C@@H]1NC(=O)[C@@H](N(C)C(=O)[C@@H](NC(=O)[C@@H]2C[C@@H](F)CN2C(=O)C2(C(F)(F)F)CC(F)(F)C2)C2CC2)CCCCCCCN(C)C(=O)[C@H](Cc2cc(Cl)cnc2N2CCOCC2)N(C)C1=O [Example 320] ({cBuCO(3,3-F2-1-CF3)}-[Pro(trans-4-F)][Gly(cPr)][NMehhhLys(Me)]L[X17]; lactam 3-C)
3. CC(C)C[C@@H]1NC(=O)[C@@H](N(C)C(=O)[C@@H](NC(=O)[C@@H]2C[C@@H](F)CN2C(=O)C2(C(F)(F)F)CC(F)(F)C2)C2CC2)CCCCCCCN(C)C(=O)[C@H](Cc2cc(Cl)ccc2-c2ccc(N3CCN(C)[C@@H](C)C3)cc2)N(C)C1=O [Example 409] ({cBuCO(3,3-F2-1-CF3)}-[Pro(trans-4-F)][Gly(cPr)][NMehhhLys(Me)]L[X1]; lactam 3-C)
4. CC(C)C[C@@H]1NC(=O)[C@@H](N(C)C(=O)[C@@H](NC(=O)[C@@H]2C[C@@H](F)CN2C(=O)C2(C(F)(F)F)CC(F)(F)C2)C2CC2)CCCCCCCN(C)C(=O)[C@H](Cc2cc(Cl)ccc2-c2ccc(N3CCOCC3)c(F)c2)N(C)C1=O [Example 348] ({cBuCO(3,3-F2-1-CF3)}-[Pro(trans-4-F)][Gly(cPr)][NMehhhLys(Me)]L[X71]; lactam 3-C)

[7.05, 7.52, 7.70, 7.70]

Report pIC50 for each item below.
1. CC(=O)N1CCC(c2ccc(F)cc2C[C@H]2C(=O)N(C)CCCCCCC[C@H](N(C)C(=O)[C@@H](NC(=O)[C@@H]3C[C@@H](F)CN3C(=O)C3(C(F)(F)F)CC(F)(F)C3)C3CC3)C(=O)N[C@@H](CC(C)C)C(=O)N2C)CC1 [Example 45] ({cBuCO(3,3-F2-1-CF3)}-[Pro(trans-4-F)][Gly(cPr)][NMehhhLys(Me)]L[X184]; lactam 3-C)
2. CC(C)C[C@@H]1NC(=O)[C@@H](N(C)C(=O)[C@@H](NC(=O)[C@@H]2C[C@@H](F)CN2C(=O)C2(C(F)(F)F)CC(F)(F)C2)C2CC2)CCCCCCCN(C)C(=O)[C@H](Cc2cc(Cl)cc3c2ccn3C)N(C)C1=O [Example 393] ({cBuCO(3,3-F2-1-CF3)}-[Pro(trans-4-F)][Gly(cPr)][NMehhhLys(Me)]L[X41]; lactam 3-C)
3. CC(C)C[C@@H]1NC(=O)[C@@H](N(C)C(=O)[C@@H](NC(=O)[C@@H]2C[C@@H](F)CN2C(=O)C2(C(F)(F)F)CC(F)(F)C2)C2CC2)CCCCCCCN(C)C(=O)[C@H](Cc2cc(Cl)ccc2-c2ccc3c(c2)COC32CN(C)C2)N(C)C1=O [Example 355] ({cBuCO(3,3-F2-1-CF3)}-[Pro(trans-4-F)][Gly(cPr)][NMehhhLys(Me)]L[X98]; lactam 3-C)
4. CC(C)C[C@@H]1NC(=O)[C@@H](N(C)C(=O)[C@@H](NC(=O)[C@@H]2C[C@@H](F)CN2C(=O)C2(C(F)(F)F)CC(F)(F)C2)C2CC2)CCCCCCCNC(=O)[C@H](Cc2cc(Cl)ccc2C(C)C)N(C)C1=O [Example 63] ({cBuCO(3,3-F2-1-CF3)}-[Pro(trans-4-F)][Gly(cPr)][NMe(hhhLys)]L[X88]; lactam 3-C)
5. CC(=O)N1CCC(=Cc2ccc(Cl)cc2C[C@H]2C(=O)N(C)CCCCCCC[C@H](N(C)C(=O)[C@@H](NC(=O)[C@@H]3C[C@@H](F)CN3C(=O)C3(C(F)(F)F)CC(F)(F)C3)C3CC3)C(=O)N[C@@H](CC(C)C)C(=O)N2C)CC1 [Example 289] ({cBuCO(3,3-F2-1-CF3)}-[Pro(trans-4-F)][Gly(cPr)][NMehhhLys(Me)]L[X18]; lactam 3-C)

[7.00, 5.18, 7.70, 6.92, 7.52]

FYI, the data here is from patent US20240408169A1.
